# Test system: HOP-18 NSCLC
# assay_info: NCI tumour cell line growth inhibition, 48 h
property_label: TGI

Query block: Name the recorded TGI for C=CCN(N=O)C(=O)N(CCC)CCCCC(NC(C)=O)C(=O)NCc1ccccc1 (centres undefined) .
Result block: > 100 µM

Query block: Do the same for CSC(=N)N1N=C2c3ccccc3CC[C@@H]2[C@@H]1c1ccccc1 please
Result block: 47.8 µM

Query block: Do the same for Nc1nc(N)c(-c2ccc(Cl)cc2)c(CCC(=O)Nc2cccc(C(F)(F)F)c2)n1 please
Result block: > 100 µM

Query block: Do the same for Nc1ccn([C@@H]2C=C(CO)[C@@H](O)[C@H]2O)c(=O)n1 please
Result block: 500 µM

Query block: Do the same for COC(=O)C1=CC2OC13CC1CCC3(C2=O)C1(C)C (centres undefined) please
Result block: 24 µM

Query block: Do the same for COc1cc(-c2c(C)c(C)nc(OC)c2C#N)cc(OC)c1OC please
Result block: > 100 µM

Query block: Do the same for CC1C2=CC=C(O2)C(C)(C)C2=CC=C(O2)C(C)(C)C2=CC=C(O2)C(C)(C)C2=CC=C1O2 please
Result block: > 100 µM

Query block: Do the same for CSC(=S)NNC(=O)c1ccncc1 please
Result block: > 100 µM

Query block: Do the same for O=C(O)CNCc1c2ccccc2[n+]([O-])c2ccccc12 please
Result block: > 100 µM

Query block: Do the same for CSc1sc(=S)sc1SC please
Result block: > 100 µM

Query block: Do the same for Cc1c(Cl)ccc2c1NC(=O)C2(O)C1Cc2ccccc2C1=O (centres undefined) please
Result block: > 100 µM

Query block: Do the same for O=C1/C(=C/c2ccccc2)CCCC/C1=C\c1ccccc1 please
Result block: > 100 µM

Query block: Do the same for COc1ccc(OC)c2cc(C3(C)SCCCS3)ccc12 please
Result block: > 100 µM

Query block: Do the same for Cc1ccc(C2=NO[C@@H]3C(=O)N(c4ccc(Cc5ccc(N6C(=O)[C@H]7C(c8ccc(C)cc8)=NO[C@H]7C6=O)cc5)cc4)C(=O)[C@H]23)cc1 please
Result block: > 100 µM
